# Test system: Vero E6 infected with SARS-CoV-2
# test method notes: inhibition of SARS-CoV-2 cytopathic effect; higher = more antiviral protection, active = above 15
# measurement parameters: 833.33 nM; 48 h
inhibition of SARS-CoV-2 cytopathic effect: recorded values
Your answer should be a plain number; it is taken to be in %.

[
  {
    "compound": "Oc1cc2c(cc1O)CN(C(=S)NCCc1ccc(Cl)cc1)CCC2 [capsazepine]",
    "tgt": "Vero E6 infected with SARS-CoV-2",
    "measured": -0.65
  },
  {
    "compound": "CCOCCOc1ccccc1C(N)=O [etosalamide]",
    "tgt": "Vero E6 infected with SARS-CoV-2",
    "measured": -5.67
  },
  {
    "compound": "CNCCN(C)Cc1c[nH]nc1-c1ccc(O[C@H]2C[C@H](OCCC3CCOCC3)C2)cc1",
    "tgt": "Vero E6 infected with SARS-CoV-2",
    "measured": 1.11
  },
  {
    "compound": "O=C(Nc1ccccc1)N[C@H]1C[C@H](C(=O)O)Nc2cc(Cl)cc(Cl)c21",
    "tgt": "Vero E6 infected with SARS-CoV-2",
    "measured": -0.05
  }
]

Shifting focus to the compound that follows.
Missing value: inhibition of SARS-CoV-2 cytopathic effect, Vero E6 infected with SARS-CoV-2, entry "C[C@H]1CNCCCN1S(=O)(=O)c1cccc2cncc(F)c12" . Fill in?
-1.5
